# System: DU-145 prostate
# test.name: NCI-60 one-dose screen, 48 h (100 = growth as untreated, 0 = no growth, -100 = all killed)
# study.conditions: 10 µM unless noted
This is part of a sample that, as a whole, favours compounds with a hit. Of some 83,000 tested, about 20% had one in any assay.
Values of growth greater than or equal to 90% map to Fulfilled; values below map to Not fulfilled.

- smiles.input: "Cc1ncc(CO)c(C(=O)O)c1O"
  system.name: "DU-145 prostate"
  assigned.category: "Fulfilled"
- smiles.input: "CCOc1ccc(NC2=C(Cl)C(=O)c3ccccc3C2=O)cc1"
  system.name: "DU-145 prostate"
  assigned.category: "Fulfilled"
- smiles.input: "C=C1C(=O)O[C@H]2[C@H]1CC/C(COC(=O)n1ccnc1C)=C\\CC[C@@]1(C)O[C@@H]21"
  system.name: "DU-145 prostate"
  assigned.category: "Fulfilled"

Please check the record CCc1ccc(C2=C/C(=C/c3ccc(Cl)cc3)C(=O)N2CCc2ccc(S(N)(=O)=O)cc2)cc1 and state if its growth is at or above 90%.
Not fulfilled

# iterate: Cc1cccc(NC(=O)CCc2ccc(N3C(N)=NC(N)=NC3(C)C)cc2)c1
Not fulfilled

# iterate: COc1ccc2c(c1)C(=O)/C(=C/c1ccc(OCC(=O)c3ccc(Cl)cc3)cc1)O2
Fulfilled

# iterate: COc1cc(C(=O)N2CCN(C(=O)c3cc(OC)c(OCc4ccccc4)cc3N)CC2)c(N)cc1OCc1ccccc1
Fulfilled

# iterate: CCOc1ccc(Cc2nccc3cc(OCC)c(OCC)cc23)cc1OCC
Not fulfilled

# iterate: CN[C@@H](CCCNC(N)=NC/C=C(/C)CCC=C(C)C)C(=O)N(C)[C@@H](CCCNC(N)=NCC=C(C)C)C(=O)N[C@H](C)[C@H](OS(=O)(=O)O)c1ccc(OS(=O)(=O)O)c(COS(=O)(=O)O)c1
Fulfilled

----------
Examples of compounds with documented growth follow.
# System: DU-145 prostate
# test.name: NCI-60 one-dose screen, 48 h (100 = growth as untreated, 0 = no growth, -100 = all killed)
# study.conditions: 10 µM unless noted
# Experimental: Cells are grown in 96 well plates and exposed to the test compound for 48 hours. Compounds are tested at a single concentration, which is 10^-5 M for most compounds. The reported endpoint is percent growth (GI% or GIPRCNT), where numbers from 0 - 100% represent growth inhibition, and numbers from -100% - 0 represent cell death. For example, a value of 40 represents 60% growth inhibition. A value of 0 means no net growth occurred over the course of the experiment. […]
This is part of a sample that, as a whole, favours compounds with a hit. Of some 83,000 tested, about 20% had one in any assay.
Your answer is read as %, so omit the unit and give the number.

- compound: "O=[N+]([O-])c1ccc(NS(=O)(=O)c2ccccc2)c2ccccc12"
  unit.of.measurement: "%"
  growth: 62.4
- compound: "O=[N+]([O-])c1cccc2cc(S(=O)(=O)O)ccc12"
  unit.of.measurement: "%"
  growth: 105

Would you kindly share the measured growth for COc1cc(-c2nc3sc(C)cn3c2/C=C2\C(=O)Nc3ccccc32)c(Br)c(OC)c1OC ?
46.9

# iterate: COc1cc2ncnc(Oc3ccc(NC(=O)Nc4ccc(CN5CCOCC5)c(C(F)(F)F)c4)c4ccccc34)c2cc1OC
32.6

# iterate: c1coc(CSc2ncnc3nc[nH]c23)c1
108

# iterate: O=S(=O)(CCN1CCOCC1)Nc1cncc(-c2ccc3ncnc(Nc4ccc(F)c(Cl)c4)c3c2)c1
65.3

# iterate: O=C(Nc1cccc(-n2ccc3c(NC(=O)c4ccccc4)ncnc32)c1)Nc1ccc(Cl)c(C(F)(F)F)c1
42.2

# iterate: CC(C)CCC[C@@H](C)[C@H]1CC[C@H]2[C@@H]3CC=C4N(c5ccccc5)C(=O)CC[C@]4(C)[C@H]3CC[C@]12C
103

# iterate: COc1cccc(C2CC(c3cc(OC)c(OC)c(OC)c3)=NN2)c1 (centres undefined)
104

# iterate: COc1ccc2c(c1)OC(N)=C(C#N)C2c1ccc(F)c(F)c1 (centres undefined)
30.4

# iterate: COc1cc2ncnc(Oc3ccc(NC(=O)Nc4ccc(C5(C#N)CCCC5)cc4)c4ccccc34)c2cc1OC
57.7

# iterate: COc1ccccc1P(c1ccccc1OC)c1ccccc1OC
109

# iterate: COc1ccc(-c2nn(-c3ccc(NC(=O)c4cc(C(F)(F)F)cc(C(F)(F)F)c4)cc3)cc2-c2ccncc2)cc1Cl
76.7

# iterate: c1nc(SC2=NCCN2)c2[nH]cnc2n1
37.3

# iterate: Cc1ccc2oc(=O)cc(C3C(C#N)=C(N)Oc4c3ccc3ccccc43)c2c1 (centres undefined)
96.3

# iterate: CC(C)CNCC(O)COc1ccc(C(C)(C)c2ccc(OCC(O)CNCC(C)C)cc2)cc1 (centres undefined)
44.7

# iterate: COC1OCC(OS(=O)(=O)c2ccc(C)cc2)C(OC(=O)c2ccccc2)C1OC(=O)c1ccccc1 (centres undefined)
66.6

# iterate: COc1cc(-c2nc(SCC(=O)Nc3ccc(C(C)=O)cc3)[nH]c(=O)c2C#N)cc(OC)c1OC
14.1

# iterate: O=C(NCCNc1nccc(-c2c(-c3cccc(O)c3)nc3sccn23)n1)c1ccc(N2CCOCC2)c(C(F)(F)F)c1
94.9

----------
# Tested on: IGROV1 ovarian
# test.name: NCI-60 one-dose screen, 48 h (100 = growth as untreated, 0 = no growth, -100 = all killed)
# study.conditions: 10 µM unless noted
About 83,000 compounds went through this panel and 20% of them were active in at least one assay; those are over-represented in the sample as a whole.
Examples of compounds with documented growth follow.
Your answer is read as %, so omit the unit and give the number.

# example entries with known answers
- smiles.input: "COC(=O)c1oc2c(C(=O)/C=C/c3ccc(OC)cc3)c(OCCN3CCOCC3)ccc2c1C"
  readout.name: "growth"
  experimental.result: -4.01
- smiles.input: "O=c1c2ccccc2sc2c(NCCN3CCOCC3)nc3ccccc3c12"
  readout.name: "growth"
  experimental.result: 66.2
- smiles.input: "O=c1cc(Cl)[nH]c(=O)[nH]1"
  readout.name: "growth"
  experimental.result: 109

Would you kindly share the measured growth for CC1(C)CC(=O)C2=C(C1)OC1=C(C(=O)CC(C)(C)C1)C2c1ccc(OCc2cn(-c3ccc(F)cc3F)nn2)cc1 ?
102

# iterate: CCOC(=O)c1noc2c1CCc1cn(Cc3cc(OC)cc(OC)c3)cc1-2
110

# iterate: COc1cc(/C=C/C(=O)c2c(C)n([O-])c3cc(C)c(C)cc3[n+]2=O)cc(OC)c1OC
-21.3

# iterate: Nc1c(C(=O)O)[nH]c(=O)[nH]c1=O
112

----------
# Test system: OVCAR-5 ovarian
# test.name: NCI-60 one-dose screen, 48 h
# study.conditions: 10 µM unless noted
This is part of a sample that, as a whole, favours compounds with a hit. Of some 83,000 tested, about 20% had one in any assay. Active and inactive are the calls of the source. The calls were made as follows: active = growth percent below 10; inactive = the rest.
Returns: one label drawn from active, inactive

Some solved entries appear below for comparison.
- molecule: "C=C1C(=O)O[C@H]2[C@H]1CC/C(COC(=O)OC/C1=C/CC[C@@]3(C)O[C@H]3[C@H]3OC(=O)[C@@H](CN(C)C)[C@@H]3CC1)=C\\CC[C@@]1(C)O[C@@H]21"
  assigned.category: "active"
- molecule: "Cc1ccc2c(C3C(C#N)=C(N)Oc4cc5ccccc5cc43)cc(=O)oc2c1 (stereo not drawn)"
  assigned.category: "inactive"
- molecule: "CS(=O)(=O)Nc1cccc(-c2ccc3ncnc(Nc4cncc(Cl)c4)c3c2)c1"
  assigned.category: "inactive"

GET /call?item= O=C(Nc1cccc([N+](=O)[O-])c1)Nc1cccc([N+](=O)[O-])c1 returns the recorded outcome of this test.
inactive

# iterate: Cl[C@@H]1CCO[C@H](c2cc3ccccc3c3ccccc23)C1
inactive

# iterate: COc1cc(/C=C/C(=O)c2ccc(Oc3ncnc4ccccc34)cc2)cc(OC)c1OC
inactive

# iterate: O=c1[nH]ccc2nc(N3CCC(O)CC3)nc(Nc3cccc(C(F)(F)F)c3)c12
inactive

# iterate: CC1CCC(C(C)C)C(NN)C1 (stereo not drawn)
inactive

# iterate: COc1cc2c(cc1OCCCCC(=O)Nc1ccc(-c3nc4ccccc4s3)cc1)N=C[C@@H]1CCCN1C2=O
active

# iterate: CC(C)(C)OC(=O)N1CC(Cn2cc(C(F)(F)F)c3c(Cl)ncnc32)C1
inactive

----------
# Test system: MALME-3M melanoma
# test.name: NCI-60 one-dose screen, 48 h (100 = growth as untreated, 0 = no growth, -100 = all killed)
# study.conditions: 10 µM unless noted
This is part of a sample that, as a whole, favours compounds with a hit. Of some 83,000 tested, about 20% had one in any assay.
readout.name: growth (%)
Your answer is read as %, so omit the unit and give the number.

- compound: "CCCCCCCCCCCCCCCCCCNCc1ccc(Cl)cc1"
  growth / %: -57.6

Would you kindly share the measured growth for CCC1S/C(=N\N=C(/C)c2cc3ccccc3o2)N(c2ccccc2)C1=O (stereo unspecified) ?
105

# iterate: COc1ccc(C(=O)NC(=O)Nc2ccc3c(c2)NC(=O)/C3=C\c2[nH]c(C)c(C(=O)O)c2C)c(F)c1
-8

# iterate: OCCOCC(F)(F)F
99.6

# iterate: CN(C)c1ccc2cc(-c3nc4ccccc4s3)c(N)nc2c1
83.4

# iterate: COc1ccccc1P(c1ccccc1OC)c1ccccc1OC
104
